Listed below: inhibition at 50 µg/mL values for each entry.
tested on: Tobacco mosaic virus; experiment: Antiviral activity against Tobacco mosaic virus U1 (TMV) infected Nicotiana glutinosa leaves assessed as inhibition of viral replication at 50 ug/mL measured 48 hr after compound exposure by half leaf method; type: functional; details: U1, in Nicotiana glutinosa
The reply should consist of the numeric value with the unit placed after it.

A selection of reference data follows.
Retrieve inhibition at 50 µg/mL measured for COC1=C[C@@H](C)[C@@H]2C[C@H]3OC(=O)C[C@H]4[C@@H](C)[C@H](OC)[C@@H](O)[C@H]([C@@]2(C)C1=O)[C@@]34C and print it.
6.7%

Quickly give me recorded inhibition at 50 µg/mL for COc1cccc2c3c([nH]c12)C(=O)NC(=O)C3=O
39.5%

Provide measured inhibition at 50 µg/mL value, entry: C=Cc1ncc(OC)c2c1[nH]c1c(OC)cccc12
38.5%

Name the recorded inhibition at 50 µg/mL of the compound listed here: CCc1nccc2c1[nH]c1c(OC)cccc12
25%

Next:
Answer with the recorded inhibition at 50 µg/mL for the compound listed here: COC(=O)c1ncc(O)c2c1[nH]c1ccccc12
41.7%

Answer with the recorded inhibition at 50 µg/mL of COc1cc2nccc3c4ccccc4n(c1=O)c23 only.
40%

Return value of inhibition at 50 µg/mL for input COC(=O)c1nccc2c1[nH]c1ccccc12 , no commentary.
47.4%

State its inhibition at 50 µg/mL: COc1c(O)c2nccc3c4ccccc4n(c1=O)c23
35.7%

Tell me inhibition at 50 µg/mL reported for O=C1NC(=O)c2[nH]c3ccccc3c2C1=O
29.4%

Could you please provide reported inhibition at 50 µg/mL for COc1c(OC)c2nccc3c4ccccc4n(c1=O)c23 ? Thanks!
33.3%

Supply reported inhibition at 50 µg/mL belonging to this compound: COc1cccc2c1[nH]c1c(CCC(=O)c3nccc4c3[nH]c3ccccc34)ncc(OC)c12
39.4%

// Input: CNCC(=O)N[C@@H](CO)C(=O)N[C@H]1[C@H](O)[C@@H](O)[C@H](n2ccc(N)nc2=O)O[C@@H]1C(N)=O . Output its inhibition at 50 µg/mL only.
54.5%
